Test system: A498 renal
Experiment: NCI tumour cell line growth inhibition, 48 h; in the data active = GI50 below about 0.43 µM; inactive = the rest
Respond only with the outcome that fits, drawn from active, inactive

Query block: Fill in: this test's call for NC(=O)c1cc(I)ccc1NC(=O)COc1ccccc1 is ___
Result block: inactive

Query block: Fill in: this test's call for O=c1oc2ccc(F)cc2c(=O)n1-c1ccc(Br)cc1F is ___
Result block: active

Query block: Fill in: this test's call for Fc1c[c-]c(-c2ccccn2)c(F)c1.[CH3-].[Pt+2].c1ccc(P(C[PH+](c2ccccc2)c2ccccc2)c2ccccc2)cc1 is ___
Result block: inactive

Query block: Fill in: this test's call for CC1(C)C2CCC13C(=O)C1OC3(C2)C2C(=O)c3c(O)cccc3C(=O)C12 (stereo not given) is ___
Result block: inactive

Query block: Fill in: this test's call for COc1ccc2cc(-c3c(-c4ccncc4)nc(-c4ccc(S(C)=O)cc4C)n3C)ccc2c1 (stereo not given) is ___
Result block: inactive

====

Test system: MDA-MB-435
Experiment: NCI tumour cell line growth inhibition, 48 h
Attribute measured: TGI (µM)
Kindly provide the numeric value in µM only, without the unit symbol.

Query block: Which value of TGI has been reported for Cc1cc(=O)oc2cc(OCCn3c(C)nn(-c4ccc(Cl)cc4)c3=O)ccc12 in the records?
Result block: 0.837

Query block: Which value of TGI has been reported for Nc1ncc(/C=N/O)c(NCC2(CO)CC(CCc3ccccc3)C2)n1 (stereo not given) in the records?
Result block: 23.8

Query block: Which value of TGI has been reported for COc1ccc(/C=C(/C(=O)n2cnnn2)c2cc(OC)c(OC)c(OC)c2)cc1 in the records?
Result block: 3.24

Query block: Which value of TGI has been reported for Nc1ncnc2c1c(-c1ccc(Oc3ccccc3)cc1)nn2C[C@@H]1SSC[C@@H]1O in the records?
Result block: 0.256

Query block: Which value of TGI has been reported for C[C@@H]1C/C=C\C(=O)O[C@H](/C=C/C#C/C=C/C(C)(C)[C@@H](O)c2cccc(O)c2Br)[C@@H](C)/C=C/[C@H](C)C[C@H](OC(N)=O)C1 in the records?
Result block: 12.1

Query block: Which value of TGI has been reported for C=C[C@@](C)(/C=C/c1ccc(O)cc1)CCC=C(C)C in the records?
Result block: 33.9

Query block: Which value of TGI has been reported for COc1ccc2c(c1)nc1n2C(c2ccc(F)cc2)SC1 (stereo not given) in the records?
Result block: 59.5

Query block: Which value of TGI has been reported for CCCNC(=O)CCC(C)[C@H]1CCC2C3C(C[C@H](OC(C)=O)[C@@]21C)[C@@]1(C)CCC2(C[C@H]1C[C@H]3OC(C)=O)OOC1(CCCCC1)OO2 (stereo not given in full) in the records?
Result block: 9.92

Query block: Which value of TGI has been reported for COc1ccc(C(=O)C[C@]2(O)C(=O)Nc3c(Cl)ccc(Cl)c32)cc1 in the records?
Result block: 0.396

Query block: Which value of TGI has been reported for CC1=C2NCN(C)N=C2C(C#N)(C#N)C1(C#N)C#N in the records?
Result block: 46.6

Query block: Which value of TGI has been reported for O=c1oc2ccc(F)cc2c(=O)n1-c1ccc(Br)cc1F in the records?
Result block: 6.64

Query block: Which value of TGI has been reported for Cc1ccc(/C=C2\CNC/C(=C\c3ccc(C)cc3)C2=O)cc1 in the records?
Result block: 19.9

Query block: Which value of TGI has been reported for O=C(Nc1cc(S(=O)(=O)c2ccc(Cl)cc2)ccc1Cl)c1cc(I)cc(I)c1O in the records?
Result block: 37.8

Query block: Which value of TGI has been reported for COC(=O)[C@H](Cc1ccccc1)NC(=O)c1csc([C@@H](C[C@H](C(C)C)N(C)C(=O)[C@@H](NC(=O)[C@H]2CCCN2C)C2CC2)OC(C)=O)n1 in the records?
Result block: 0.191

====

Test system: SN12C renal
Experiment: NCI tumour cell line growth inhibition, 48 h
Attribute measured: GI50

Query block: Which value of GI50 has been reported for C1=C2CNCC3=Cc4ccc5ccccc5c4OC23Oc2c1ccc1ccccc21 in the records?
Result block: 4.22 µM

Query block: Which value of GI50 has been reported for c1ccc(CC(NCCNC(Cc2ccccc2)c2ccccc2)c2ccccc2)cc1 (stereo not drawn) in the records?
Result block: 0.517 µM

Query block: Which value of GI50 has been reported for COc1ccc(C(=O)C[C@]2(O)C(=O)Nc3c(Cl)ccc(Cl)c32)cc1 in the records?
Result block: 0.87 µM

Query block: Which value of GI50 has been reported for Nc1ncnc2c1c(-c1ccc(Oc3ccccc3)cc1)nn2C[C@@H]1SSC[C@@H]1O in the records?
Result block: 0.762 µM

Query block: Which value of GI50 has been reported for CCC(=O)c1cc([N+](=O)[O-])c(Br)s1 in the records?
Result block: 8.3 µM

Query block: Which value of GI50 has been reported for O=C(/C=C/c1cn(-c2ccccc2)nc1-c1ccc([N+](=O)[O-])cc1)c1ccc(Cl)cc1 in the records?
Result block: 4.54 µM

Query block: Which value of GI50 has been reported for CC1(C)C2CCC13C(=O)C1OC3(C2)C2C(=O)c3c(O)cccc3C(=O)C12 (stereo not drawn) in the records?
Result block: 0.711 µM

Query block: Which value of GI50 has been reported for CC(C)(CO)N=Cc1ccccc1[O-].CC(C)(CO)N=Cc1ccccc1[O-].[Co+2] in the records?
Result block: > 96.6 µM

Query block: Which value of GI50 has been reported for COc1ccc(NC(=O)c2sc3nc4c(cc3c2N)CCCC4)cc1 in the records?
Result block: 1.43 µM

Query block: Which value of GI50 has been reported for COc1ccc2[nH]c(-c3ccccc3)cc2c1 in the records?
Result block: > 100 µM

Query block: Which value of GI50 has been reported for CN(C)C(=O)SC1=C(c2c(Cl)cccc2Cl)C(=O)c2ccccc21 in the records?
Result block: 6.18 µM

Query block: Which value of GI50 has been reported for C=CC1=CC(C)C[C@]1(O)C(=O)OC (stereo partly drawn) in the records?
Result block: > 100 µM

Query block: Which value of GI50 has been reported for Cc1cc(=O)oc2cc(OCCn3c(C)nn(-c4ccc(Cl)cc4)c3=O)ccc12 in the records?
Result block: 5.54 µM

Query block: Which value of GI50 has been reported for CC(=O)[CH-]C(=O)c1ccccc1.CC(=O)[CH-]C(=O)c1ccccc1.[CH2-]CCC.[CH2-]CCC.[Sn+4] in the records?
Result block: 1.14 µM

Query block: Which value of GI50 has been reported for Cc1n(Cc2ccc3ccccc3c2)c(Cl)c(Cl)[n+]1Cc1ccc2ccccc2c1 in the records?
Result block: 1.62 µM

Query block: Which value of GI50 has been reported for O=C(Nc1ccc(Cl)cc1)Nc1ccccc1CNc1nc(Nc2ccc(OCCN3CCCC3)cc2)ncc1Cl in the records?
Result block: 0.913 µM

Query block: Which value of GI50 has been reported for O=c1oc2ccc(F)cc2c(=O)n1-c1ccc(Br)cc1F in the records?
Result block: 0.376 µM

Query block: Which value of GI50 has been reported for COc1ccc(C2ONC3=NCCN32)cc1 (stereo not drawn) in the records?
Result block: 52.8 µM

====

Attribute measured: GI50

Query block: Report GI50 for Fc1cc(-c2nnc3n2N=C(c2ccc(Cl)cc2Cl)CS3)c(Cl)cc1Cl tested on NCI-H460 lung.
Result block: 37.3 µM

Query block: Report GI50 for C1=C2CNCC3=Cc4ccc5ccccc5c4OC23Oc2c1ccc1ccccc21 tested on NCI-H460 lung.
Result block: 3.27 µM

Query block: Report GI50 for Oc1[nH]c2ccccc2c1/C=c1/cc2c(c(-c3ccc(C(F)(F)F)cc3)n1)=Nc1ccccc1-2 tested on NCI-H460 lung.
Result block: 2.56 µM

Query block: Report GI50 for NC(=O)c1cc(I)ccc1NC(=O)COc1ccccc1 tested on NCI-H460 lung.
Result block: 0.433 µM

Query block: Report GI50 for COc1ccc(/C=C(/C(=O)n2cnnn2)c2cc(OC)c(OC)c(OC)c2)cc1 tested on NCI-H460 lung.
Result block: 3.75 µM

====

System: OVCAR-4 ovarian
Experiment: NCI tumour cell line growth inhibition, 48 h
Would you mind telling me the reported TGI of each entry?

Query block: Which value of TGI has been reported for O=[N+]([O-])c1ccc(NS(=O)(=O)C(F)(F)F)cc1 in the records?
Result block: > 100 µM

Query block: Which value of TGI has been reported for NC(=O)C1=CC2C3C=CC2(O)C(=O)OC3O1 (stereo not drawn) in the records?
Result block: 13.2 µM

Query block: Which value of TGI has been reported for O=C(c1ccco1)C1CC(c2ccc3ccccc3c2O)=NN1c1ccc([N+](=O)[O-])cc1[N+](=O)[O-] (stereo not drawn) in the records?
Result block: > 100 µM

Query block: Which value of TGI has been reported for Cn1cnc([N+](=O)[O-])c1Sc1nc(N)nc2nc[nH]c12 in the records?
Result block: > 100 µM

Query block: Which value of TGI has been reported for CC[C@H](C)[C@H](NC(=O)[C@H]1CCCCN1C)C(=O)N(C)[C@H](C[C@@H](OC(C)=O)c1nc(C(=O)N[C@@H](Cc2ccccc2)C[C@H](C)C(=O)OC)cs1)C(C)C in the records?
Result block: > 25 µM

Query block: Which value of TGI has been reported for NC(N)=N/N=C/c1c(-c2ccc(Cl)c([N+](=O)[O-])c2)nc2n1CCS2 in the records?
Result block: 32.8 µM

Query block: Which value of TGI has been reported for CC1(C)CCC2(C(=O)OC3OC(CO)C(O)C(O)C3O)CCC3(CO)C(=CCC4C5(C)CC(O)C(O)C(C)(C(=O)OC6OC(CO)C(O)C(O)C6O)C5CCC43C)C2C1 (stereo not drawn) in the records?
Result block: > 100 µM

Query block: Which value of TGI has been reported for COc1ccc(C2=C(OC(=O)N(C)C)c3cccn3-c3cc(Cl)ccc3S2)cc1 in the records?
Result block: > 10 µM
